- system tested: STAT6 (Homo sapiens, UniProt P42226)
- Construct: stably transfected HaCaT keratinocyte cell line, which expresses NanoLuc luciferase reporter gene under the transcriptional control of the STAT6 responsive promoter; endogenous in cells; host or cells: HaCaT keratinocyte reporter cell line (stably transfected with a NanoLuc reporter)
- Sequence (P42226 whole entry): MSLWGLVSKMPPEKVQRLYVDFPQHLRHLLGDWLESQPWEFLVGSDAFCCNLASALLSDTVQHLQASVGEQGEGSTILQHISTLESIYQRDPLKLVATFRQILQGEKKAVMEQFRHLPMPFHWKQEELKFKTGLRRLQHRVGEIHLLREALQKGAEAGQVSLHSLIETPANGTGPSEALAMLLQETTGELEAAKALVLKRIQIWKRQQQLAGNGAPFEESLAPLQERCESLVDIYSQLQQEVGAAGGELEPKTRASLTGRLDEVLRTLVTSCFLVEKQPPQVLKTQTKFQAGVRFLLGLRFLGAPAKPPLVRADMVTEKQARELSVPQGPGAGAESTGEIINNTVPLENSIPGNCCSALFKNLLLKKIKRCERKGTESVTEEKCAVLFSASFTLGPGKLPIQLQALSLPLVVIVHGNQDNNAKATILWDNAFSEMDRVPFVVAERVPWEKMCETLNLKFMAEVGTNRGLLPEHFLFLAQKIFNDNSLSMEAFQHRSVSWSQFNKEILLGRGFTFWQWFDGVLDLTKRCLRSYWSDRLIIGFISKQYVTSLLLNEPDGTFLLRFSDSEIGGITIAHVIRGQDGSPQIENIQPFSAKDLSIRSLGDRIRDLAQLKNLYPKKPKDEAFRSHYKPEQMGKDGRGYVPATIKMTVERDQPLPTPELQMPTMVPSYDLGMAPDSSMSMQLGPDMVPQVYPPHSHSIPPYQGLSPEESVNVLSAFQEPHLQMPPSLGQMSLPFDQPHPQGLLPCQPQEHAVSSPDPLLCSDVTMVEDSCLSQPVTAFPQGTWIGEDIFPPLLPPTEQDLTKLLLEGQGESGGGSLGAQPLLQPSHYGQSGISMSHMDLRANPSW
- experimental details: STAT6 Reporter Luciferase Assay (IL-13 stimulated HaCaT keratinocyte NanoLuc reporter cells)
- Assay type: cell-based
- measurement context: IL-13 stimulated HaCaT STAT6 NanoLuc reporter cells; read-out: Reporter EC50
pEC50: −log10 of the molar value.
quantity measured: pEC50

(I) CC(C)n1nc(C(=O)NCc2ccc(NC(=O)N(C)C)cc2)c2c1CCN(c1ccc(C(=O)N3CCC4(COC4)C3)cn1)C2
(II) CC(C)n1nc(C(=O)NCc2ccc(NC(=O)N(C)C)cc2)c2c1CCN(c1ccc(C(=O)N3CC(=O)N[C@H](C)C3)cn1)C2
(III) CC(C)n1nc(C(=O)NCc2ccc(NC(=O)N(C)C)cc2)c2c1CCN(c1ccc(C(=O)N3C[C@@H](C)O[C@@H](C)C3)cn1)C2
Req: Rank the items above by pEC50, largest value first. List labels; respect the requested ordering.
Resp: I, III, II
